Measurement notes: Thermostability (Tm, Tonset, Tagg) by Nanotemper DSF
Type: physicochemical
Parameters: key: temperatures in °C
Conditions used: Replicate 1
Could you please report measured Tagg for the items listed next?
Simply state the number, no unit and no words.

# input Param item = DAB22110-1-1-C3 (protein) VHH: QLQLVESGGGLVQPGGSLRLSCEASGFTFKYYTMSWYRQAPGKERELVATITNGDRTNYADSVKGRFTISRDNAKNTLYLQMNSLKPYDTAVYYCNRHLPLLQIWGQGTQVTVSS ; retrieve measured Tagg.
# output 59.02

# input Param item = SDAB22110-1-1-B9-1: anti-Fel d1 VHH clone, SEQ ID NO: 50 (protein) VHH: DVQLVESGGGWVQPGGSLRLSCAASGFTFTSYALSWVRQAPGKGLEWVSLADARGTSTTYADSVKGRFTISKDNPRNTLYLLMNSLKPEDTAVYYCTKGFDGNWYPDYDYWGQGTQVTVSS ; retrieve measured Tagg.
# output 41.73

# input Param item = SDAB22110-4-3-E05: anti-Fel d1 VHH clone, SEQ ID NO: 55 (protein) VHH: QVQLVESGGGLVQPGGSLRLSCVGSGFTFSQYAMRWYRQVPGKARELVAAISRSGDFMYYADSVKGRFTISRDNVKSAVILQMNSLKPEDTAVYYCYGQATISDTLWGQGTQVTVSS ; retrieve measured Tagg.
# output 40.93
